target: UniProt Q16539; assay: Inhibition of MAPK14 Kinase Activity
readoutKind: IC50 (nM)

Reference set (2 entries):
CCCCC(=O)Nc1cc(-c2c(-c3ccc(F)cc3)nc(SC)n2CCOC)ccn1 :: 83
COCCn1c(SC)nc(-c2ccc(F)cc2)c1-c1ccnc(NC(=O)C2CCCCC2)c1 :: 156

I = COCCn1c(SC)nc(-c2ccc(F)cc2)c1-c1ccnc(NC(C)=O)c1
II = COCCn1c(SC)nc(-c2ccc(F)cc2)c1-c1ccnc(NC(=O)C2CCCC2)c1
III = COCCn1c(SC)nc(-c2ccc(F)cc2)c1-c1ccnc(NC(=O)CCC(C)C)c1
Problem: Put the items in order so that reported IC50 rises from first to last. Please reply with the labels ordered as requested. Many thanks.
Result: I, III, II

====

target: MAPK14 (human); experiment: Inhibition of MAPK14 Kinase Activity
readoutKind: IC50 (nM)

COCCn1c(SC)nc(-c2ccc(F)cc2)c1-c1ccnc(NC(=O)C2CCC2)c1 :: 116
COCCn1c(SC)nc(-c2ccc(F)cc2)c1-c1ccnc(NC(=O)CCCc2ccccc2)c1 :: 115
COCCn1c(SC)nc(-c2ccc(F)cc2)c1-c1ccnc(NC(=O)C(C)(C)C)c1 :: 1760
COCCn1c(SC)nc(-c2ccc(F)cc2)c1-c1ccnc(NC(=O)CCc2ccc(OC)c(OC)c2OC)c1 :: 84
COCCn1c(SC)nc(-c2ccc(F)cc2)c1-c1ccnc(NC(=O)CC2CCCCC2)c1 :: 219
COCCn1c(SC)nc(-c2ccc(F)cc2)c1-c1ccnc(NC(=O)/C=C/c2ccccc2)c1 :: 193
COCCn1c(SC)nc(-c2ccc(F)cc2)c1-c1ccnc(NC(=O)Cc2ccc(OC)cc2)c1 :: 213
COCCn1c(SC)nc(-c2ccc(F)cc2)c1-c1ccnc(NC(=O)CCc2ccc(S(C)(=O)=O)cc2)c1 :: 220

a = COCCn1c(SC)nc(-c2ccc(F)cc2)c1-c1ccnc(NC(=O)CCC2CCCC2)c1
b = COCCn1c(SC)nc(-c2ccc(F)cc2)c1-c1ccnc(NC(=O)Cc2ccccc2)c1
c = COCCn1c(SC)nc(-c2ccc(F)cc2)c1-c1ccnc(NC(=O)CCc2cc(OC)c(OC)c(OC)c2)c1
Problem: Put the items in order so that reported IC50 rises from first to last. Please reply with the labels ordered as requested. Many thanks.
Result: c, a, b

P = COCCn1c(SC)nc(-c2ccc(F)cc2)c1-c1ccnc(NC(=O)CCC2CCCCC2)c1
Q = COCCn1c(SC)nc(-c2ccc(F)cc2)c1-c1ccnc(NCC(C)c2ccccc2)c1 (stereo not given)
Problem: Sorting ascending by IC50, which comes first: P or Q ? Indicate which entry you chose by stating its label.
Result: Q
(Q: 35 nM, P: 196 nM)

P = COCCn1c(SC)nc(-c2ccc(F)cc2)c1-c1ccnc(NC(=O)CCc2ccc(OC)cc2OC)c1
Q = COCCn1c(SC)nc(-c2ccc(F)cc2)c1-c1ccnc(NC(=O)c2ccc(OC)cc2)c1
Problem: Please tell me which of the two, P or Q , has the higher reported IC50 value. Indicate which entry you chose by stating its label.
Result: Q
(Q: 392 nM, P: 178 nM)

====

Assay system MAPK14 (human) (UniProt Q16539); read-out recorded as pIC50.
pIC50: −log10 of the molar value.
readoutKind: pIC50

Reference set (3 entries):
COCCn1c(SC)nc(-c2ccc(F)cc2)c1-c1ccnc(NC(=O)CCc2ccc(OC)c(OC)c2)c1 :: 6.67
COCCn1c(SC)nc(-c2ccc(F)cc2)c1-c1ccnc(NC(=O)CCc2ccccc2)c1 :: 7.20
COCCn1c(SC)nc(-c2ccc(F)cc2)c1-c1ccnc(NC(=O)C[C@H](C)c2ccccc2)c1 :: 6.88

1 = COCCn1c(SC)nc(-c2ccc(F)cc2)c1-c1ccnc(NC(=O)C(Oc2ccccc2)C(C)C)c1 (stereo not given)
2 = COCCn1c(SC)nc(-c2ccc(F)cc2)c1-c1ccnc(NC(=O)CCc2ccc(C(C)(C)C)cc2)c1
Problem: Please tell me which of the two, 1 or 2 , has the higher reported pIC50 value. Indicate which entry you chose by stating its label.
Result: 1
(1: 6.71, 2: 5.61)
